assay: Pharmacokinetic study by intravenous administration to a rat; assay type: in vivo; conditions: plasma, 1 mg/kg; intravenous single dose, 1 mg/mL solution at 1 mL/kg, Wistar rat, active form; read-out: Total body clearance CLtot (converted)
Collected clearance values appear next to each entry.
Answer with a number only, understood to be in mL/min/kg.

For orientation, consider the following solved cases.
compound	reading
CCNCc1ccc2c(c1)c(=O)n(-c1ccc(C[C@H](NC(=O)c3c(Cl)cccc3Cl)C(=O)O)cc1)c(=O)n2C [Example 54]	4.5
CNCc1ccc2c(c1)c(=O)n(-c1ccc(C[C@H](NC(=O)c3c(Cl)cccc3Cl)C(=O)O)cc1)c(=O)n2C [Example 99]	3.83

The record that follows has no clearance shown yet.
Noted for CN(C)Cc1ccc2c(=O)n(-c3ccc(C[C@H](NC(=O)c4c(Cl)cccc4Cl)C(=O)O)cc3)c(=O)n(C)c2c1.O=C(O)C(F)(F)F [Example 34] : its clearance reads 5.17

###

Collected clearance values appear next to each entry.
Test: Pharmacokinetic study by intravenous administration to a rat
Format: in vivo
Conditions: plasma, 1 mg/kg; intravenous single dose, 1 mg/mL solution at 1 mL/kg, Wistar rat, active form; read-out: Total body clearance CLtot (converted)
Description: Pharmacokinetic Study by Intravenous Administration to a Rat After the compounds of the present invention wherein R11 to R141 are a hydroxyl group, which were active forms, were weighed by a scale, they were adjusted by dimethylsulfoxide to become 10 mg/mL. […] 1, 5, 10, 30, 60 and 180 minutes later, the drug concentration in the blood plasma obtained by blood drawing from its cervical vein over time under anesthesia was determined with LC/MS. […]
Answer with a number only, understood to be in mL/min/kg.

Noted for CSc1ccc2c(c1)c(=O)n(-c1ccc(C[C@H](NC(=O)c3c(Cl)cccc3Cl)C(=O)O)cc1)c(=O)n2C : its clearance reads 5.5

Noted for Cn1c(=O)n(-c2ccc(C[C@H](NC(=O)c3c(Cl)cccc3Cl)C(=O)O)cc2)c(=O)c2ccc(N3CCCC3)cc21.O=C(O)C(F)(F)F : its clearance reads 3.17

Noted for Cn1c(=O)n(-c2ccc(C[C@H](NC(=O)c3c(Cl)cccc3Cl)C(=O)O)cc2)c(=O)c2cc(-n3ccnc3N)ccc21 : its clearance reads 5.33

###

target: VCAM-1/α4β1 integrin binding (Homo sapiens, UniProt P05556+P13612); construct: Jurkat (ATCC TIB-152), known to express integrin α4β1; endogenous in cells; experiment: Assay of antagonistic activity to VCAM-1/α4β1 integrin binding under the existence of blood serum (Jurkat cell adhesion to VCAM-1/Fc); conditions: Jurkat cells, recombinant human VCAM-1/Fc, 50% human blood serum
Sequence (P13612 34-1032): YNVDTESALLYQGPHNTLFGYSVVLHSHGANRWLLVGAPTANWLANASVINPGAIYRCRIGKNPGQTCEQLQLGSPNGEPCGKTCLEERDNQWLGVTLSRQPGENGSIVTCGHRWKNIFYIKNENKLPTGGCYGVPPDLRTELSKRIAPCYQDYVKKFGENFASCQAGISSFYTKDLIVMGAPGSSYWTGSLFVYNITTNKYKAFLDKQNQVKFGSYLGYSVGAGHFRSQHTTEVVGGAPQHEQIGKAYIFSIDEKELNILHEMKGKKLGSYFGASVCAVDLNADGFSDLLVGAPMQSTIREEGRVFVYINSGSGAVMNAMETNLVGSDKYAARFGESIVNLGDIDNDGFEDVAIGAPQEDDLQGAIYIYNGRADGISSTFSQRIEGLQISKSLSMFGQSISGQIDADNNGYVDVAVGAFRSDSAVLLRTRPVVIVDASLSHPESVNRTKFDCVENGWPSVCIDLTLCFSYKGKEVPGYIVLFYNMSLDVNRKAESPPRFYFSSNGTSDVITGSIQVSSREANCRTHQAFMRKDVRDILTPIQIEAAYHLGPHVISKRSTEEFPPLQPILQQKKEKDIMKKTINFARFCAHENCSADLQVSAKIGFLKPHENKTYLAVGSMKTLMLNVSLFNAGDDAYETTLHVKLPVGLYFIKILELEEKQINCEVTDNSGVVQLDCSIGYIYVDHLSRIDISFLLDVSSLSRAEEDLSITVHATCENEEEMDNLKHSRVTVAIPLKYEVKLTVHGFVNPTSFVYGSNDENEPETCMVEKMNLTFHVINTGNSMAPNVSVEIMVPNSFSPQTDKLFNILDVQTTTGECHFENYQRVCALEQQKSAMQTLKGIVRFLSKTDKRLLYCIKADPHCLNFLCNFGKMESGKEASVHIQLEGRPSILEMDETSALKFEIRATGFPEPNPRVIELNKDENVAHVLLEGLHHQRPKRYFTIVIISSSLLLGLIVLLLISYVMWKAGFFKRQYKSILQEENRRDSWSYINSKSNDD
Sequence (P05556 21-798): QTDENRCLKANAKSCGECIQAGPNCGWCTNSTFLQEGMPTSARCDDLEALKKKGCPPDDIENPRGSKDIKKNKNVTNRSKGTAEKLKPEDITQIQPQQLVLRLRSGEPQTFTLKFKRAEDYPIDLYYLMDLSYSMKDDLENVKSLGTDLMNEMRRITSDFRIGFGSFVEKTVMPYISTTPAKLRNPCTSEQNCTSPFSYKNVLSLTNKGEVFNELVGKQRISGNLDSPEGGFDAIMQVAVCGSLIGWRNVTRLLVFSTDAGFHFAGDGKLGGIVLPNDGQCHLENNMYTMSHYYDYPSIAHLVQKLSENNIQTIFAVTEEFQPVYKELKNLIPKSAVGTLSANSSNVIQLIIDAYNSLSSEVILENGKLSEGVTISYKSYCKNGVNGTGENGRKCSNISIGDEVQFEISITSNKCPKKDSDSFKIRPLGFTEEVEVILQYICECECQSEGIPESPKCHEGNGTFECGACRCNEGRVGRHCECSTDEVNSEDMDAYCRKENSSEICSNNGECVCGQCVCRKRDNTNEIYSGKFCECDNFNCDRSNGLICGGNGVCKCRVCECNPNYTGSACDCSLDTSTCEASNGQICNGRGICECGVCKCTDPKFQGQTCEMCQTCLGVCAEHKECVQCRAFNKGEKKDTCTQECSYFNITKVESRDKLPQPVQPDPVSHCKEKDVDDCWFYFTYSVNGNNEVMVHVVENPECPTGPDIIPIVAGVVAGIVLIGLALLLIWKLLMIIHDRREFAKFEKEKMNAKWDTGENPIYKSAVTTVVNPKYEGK
measured_parameter: IC50 (nM)
Answer with a number only, understood to be in nM.

compound	IC50 (nM)
CN1CCN(C)c2cc3c(cc21)c(=O)n(-c1ccc(C[C@H](NC(=O)c2c(Cl)cccc2Cl)C(=O)O)cc1)c(=O)n3C	22.9
Cn1c(=O)n(-c2ccc(C[C@H](NC(=O)c3c(Cl)cccc3Cl)C(=O)O)cc2)c(=O)c2cc(CN)ccc21	12.9
Cn1c(=O)n(-c2ccc(C[C@H](NC(=O)c3c(Cl)cccc3Cl)C(=O)O)cc2)c(=O)c2cc(CNCC3CC3)ccc21	6.3
Cn1ncc2c(=O)n(-c3ccc(C[C@H](NC(=O)c4c(Cl)cccc4Cl)C(=O)O)cc3)c(=O)n(C)c21	11.7

Noted for Cn1c(=O)n(-c2ccc(C[C@H](NC(=O)c3c(Cl)cccc3Cl)C(=O)O)cc2)c(=O)c2cc(C(N)=O)ccc21 : its IC50 reads 15.4

Noted for CNCc1ccc2c(=O)n(-c3ccc(C[C@H](NC(=O)c4c(Cl)cccc4Cl)C(=O)O)cc3)c(=O)n(C)c2c1 : its IC50 reads 4.9

Noted for CN(C)CCN(C)c1ccc2c(c1)c(=O)n(-c1ccc(C[C@H](NC(=O)c3c(Cl)cccc3Cl)C(=O)O)cc1)c(=O)n2C : its IC50 reads 14

Noted for CN1CCN(c2ccc3c(c2)c(=O)n(-c2ccc(C[C@H](NC(=O)c4c(Cl)cccc4Cl)C(=O)O)cc2)c(=O)n3C)CC1 : its IC50 reads 22.9

Noted for COCCNc1ccc2c(c1)c(=O)n(-c1ccc(C[C@H](NC(=O)c3c(Cl)cccc3Cl)C(=O)O)cc1)c(=O)n2C : its IC50 reads 15.5

Noted for CCN(CC)CCN(C)c1cc2c(cc1F)c(=O)n(-c1ccc(C[C@H](NC(=O)c3c(Cl)cccc3Cl)C(=O)O)cc1)c(=O)n2C : its IC50 reads 5.8

Noted for CNCc1ccc2c(c1)c(=O)n(-c1ccc(C[C@H](NC(=O)c3c(Cl)cccc3Cl)C(=O)O)cc1)c(=O)n2C : its IC50 reads 11.2

Noted for Cn1c(=O)n(-c2ccc(C[C@H](NC(=O)c3c(Cl)cccc3Cl)C(=O)O)cc2)c(=O)c2cc(CN3CCOCC3)ccc21 : its IC50 reads 23.3
